Recorded values, source patent US8563597B2.

target: HIV-1 protease (Human immunodeficiency virus type 1 group M subtype B, UniProt P04585)
observed_property: Ki

compound="COc1ccc(S(=O)(=O)N(CC(C)C)C[C@@H](O)[C@H](Cc2ccccc2)NC(=O)O[C@H]2CO[C@H]3O[C@@H]4OCC[C@@H]4[C@H]32)cc1 [Inhibitor 33]" result="< 0.1 nM"
compound=CC(C)CN(C[C@@H](O)[C@H](Cc1ccccc1)NC(=O)O[C@@H]1C[C@@H]2[C@H]3OCC[C@H]3O[C@@H]2C1)S(=O)(=O)c1ccc(N)cc1 result="> 10 nM"
compound="COc1ccc(S(=O)(=O)N(CC(C)C)C[C@@H](O)[C@H](Cc2ccccc2)NC(=O)O[C@@H]2CO[C@@H]3O[C@H]4OCC[C@H]4[C@@H]32)cc1 [Inhibitor 34]" result="< 10 nM"
compound=COc1ccc(S(=O)(=O)N(CC(C)C)C[C@@H](O)[C@H](Cc2ccccc2)NC(=O)O[C@H]2CO[C@H]3O[C@@H]4COC[C@@H]4[C@H]32)cc1 result="< 0.1 nM"
compound=CC(C)CN(C[C@@H](O)[C@H](Cc1ccccc1)NC(=O)O[C@@H]1C[C@@H]2[C@H]3COC[C@H]3O[C@@H]2C1)S(=O)(=O)c1ccc(N)cc1 result="< 0.1 nM"

*Q* Please respond with reported Ki (system HIV-1 protease (Human immunodeficiency virus type 1 group M subtype B, UniProt P04585)) for COc1ccc(S(=O)(=O)N(CC(C)C)C[C@@H](O)[C@H](Cc2ccccc2)NC(=O)O[C@H]2CO[C@H]3O[C@@H]4CCO[C@@H]4[C@H]32)cc1 .
*A* < 0.1 nM

*Q* Please respond with reported Ki (system HIV-1 protease (Human immunodeficiency virus type 1 group M subtype B, UniProt P04585)) for COc1ccc(S(=O)(=O)N(CC(C)C)C[C@@H](O)[C@H](Cc2ccccc2)NC(=O)O[C@H]2CCCC3O[C@H]4OCC[C@H]4C32)cc1 (stereo partly shown) .
*A* < 0.1 nM

*Q* Please respond with reported Ki (system HIV-1 protease (Human immunodeficiency virus type 1 group M subtype B, UniProt P04585)) for COc1ccc(S(=O)(=O)N(CC(C)C)C[C@@H](O)[C@H](Cc2ccccc2)NC(=O)O[C@H]2CO[C@H]3C[C@H]4OCC[C@H]4[C@H]32)cc1 [Inhibitor 35] .
*A* < 10 nM

*Q* Please respond with reported Ki (system HIV-1 protease (Human immunodeficiency virus type 1 group M subtype B, UniProt P04585)) for COc1ccc(S(=O)(=O)N(CC(C)C)C[C@@H](O)[C@H](Cc2ccccc2)NC(=O)OC2CCCC3OC4OCCCC4C23)cc1 (stereo partly shown) .
*A* < 1 nM

*Q* Please respond with reported Ki (system HIV-1 protease (Human immunodeficiency virus type 1 group M subtype B, UniProt P04585)) for COc1ccc(S(=O)(=O)N(CC(C)C)C[C@@H](O)[C@H](Cc2ccccc2)NC(=O)O[C@@H]2C[C@@H]3OC4OCCCC4[C@@H]3C2)cc1 (stereo partly shown) .
*A* < 0.1 nM

*Q* Please respond with reported Ki (system HIV-1 protease (Human immunodeficiency virus type 1 group M subtype B, UniProt P04585)) for CC(C)CN(C[C@@H](O)[C@H](Cc1ccccc1)NC(=O)O[C@H]1CO[C@H]2O[C@@H]3CCO[C@@H]3[C@H]21)S(=O)(=O)c1ccc(N)cc1 .
*A* < 0.1 nM

*Q* Please respond with reported Ki (system HIV-1 protease (Human immunodeficiency virus type 1 group M subtype B, UniProt P04585)) for CC(C)CN(C[C@@H](O)[C@H](Cc1ccccc1)NC(=O)O[C@H]1CO[C@H]2O[C@@H]3COC[C@@H]3[C@H]21)S(=O)(=O)c1ccc(N)cc1 .
*A* < 0.1 nM

*Q* Please respond with reported Ki (system HIV-1 protease (Human immunodeficiency virus type 1 group M subtype B, UniProt P04585)) for COc1ccc(S(=O)(=O)N(CC(C)C)C[C@@H](O)[C@H](Cc2ccccc2)NC(=O)OC2CS(=O)(=O)CC3OC4OCCCC4C23)cc1 (stereo partly shown) .
*A* > 10 nM
